- study-system: Human immunodeficiency virus type 1 reverse transcriptase (Human immunodeficiency virus 1, UniProt Q72547)
test-readout: IC50 (µM)

[[record]]
item_smiles = "CCN1c2ccncc2N(C)C(=O)c2cccnc21"
val = 1.6

[[record]]
item_smiles = "CCN1c2cnccc2N(C)C(=O)c2cccnc21"
val = 0.35

[[record]]
item_smiles = "CCN1c2cnccc2C(=O)N(C)c2cccnc21"
val = 6.4


# credit: ChEMBL document CHEMBL1151005
